Kindly supply the reported inhibition at 1 µM values for the records listed here.
# measuredTarget: sigma 1 (h) (Homo sapiens, UniProt Q99720)
# Construct: endogenous; endogenous in cells; host or cells: Jurkat cells
# Sequence (Q99720 whole entry): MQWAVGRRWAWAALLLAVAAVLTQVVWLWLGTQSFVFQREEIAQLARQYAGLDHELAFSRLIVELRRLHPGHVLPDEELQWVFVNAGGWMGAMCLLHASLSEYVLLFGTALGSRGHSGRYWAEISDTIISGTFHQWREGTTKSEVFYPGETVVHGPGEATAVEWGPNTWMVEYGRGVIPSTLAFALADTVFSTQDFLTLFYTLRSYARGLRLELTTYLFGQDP
# protocolText: sigma 1 (h) agonist radioligand binding assay ([3H](+)pentazocine)
# cond: Sigma 1 Receptor; 1.00E−06 M; read-out: % Inhibition of Control Specific Binding, 3rd
Answers are plain numbers, in %.

Value sought for every listed compound: inhibition at 1 µM.
1. O=C1CCCc2ccccc2N1CCCCN1CCN(c2ccccc2Cl)CC1
2. Cn1c(=O)n(CCCCN2CCC3(CC2)OCc2ccccc23)c2ccccc21 [CM699, reference compound]
3. O=C1CSCc2ccccc2N1CCCCN1CCC2(CC1)OCc1ccccc12
4. O=C1CCCc2ccccc2N1CCCCN1CCN(c2cccc(Cl)c2)CC1
5. O=C1CCCc2ccccc2N1CCCCN1CCC2(CC1)OCc1ccccc12

1. 94.7
2. 94.8
3. 96.3
4. 97.1
5. 98.6

For every record below, what is its inhibition at 1 µM?
1. O=C1COCc2ccccc2N1CCCCN1CCN(c2ccc(Cl)cc2)CC1
2. O=C1COCc2ccccc2N1CCCCN1CCN(c2cccc(Cl)c2)CC1

[93.2, 94.6]

----------
# measuredTarget: dopamine transporter (h) (Homo sapiens, UniProt Q01959)
# Construct: expressed in transfected cells; host or cells: CHO cells
# Sequence (Q01959 whole entry): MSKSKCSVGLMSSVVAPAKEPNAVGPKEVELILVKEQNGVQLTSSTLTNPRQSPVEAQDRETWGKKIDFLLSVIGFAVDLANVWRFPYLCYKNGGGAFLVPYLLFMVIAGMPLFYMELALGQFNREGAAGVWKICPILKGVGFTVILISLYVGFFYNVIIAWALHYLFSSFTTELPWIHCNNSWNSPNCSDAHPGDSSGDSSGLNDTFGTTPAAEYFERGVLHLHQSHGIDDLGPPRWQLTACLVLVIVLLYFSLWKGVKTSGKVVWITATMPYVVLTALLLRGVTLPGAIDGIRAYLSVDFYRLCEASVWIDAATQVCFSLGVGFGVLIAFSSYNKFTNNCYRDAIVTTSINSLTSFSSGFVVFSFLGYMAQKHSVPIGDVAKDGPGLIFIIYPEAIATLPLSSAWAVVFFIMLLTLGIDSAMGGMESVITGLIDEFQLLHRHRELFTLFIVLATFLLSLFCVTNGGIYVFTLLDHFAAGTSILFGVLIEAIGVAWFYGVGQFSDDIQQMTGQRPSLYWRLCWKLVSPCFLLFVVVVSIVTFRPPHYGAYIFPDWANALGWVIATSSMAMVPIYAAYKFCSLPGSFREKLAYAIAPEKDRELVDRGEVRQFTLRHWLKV
# protocolText: dopamine transporter (h) antagonist radioligand binding assay ([3H]BTCP)
# cond: 1.00E−06 M, read-out: % Inhibition of Control Specific Binding, 3rd
Response key: 1 (yes) means inhibition at 1 µM >= 20%; 0 (no) means inhibition at 1 µM < 20%.

Answered cases to consult:
compound	qualitativeLabel
O=C1CCCc2ccccc2N1CCCCN1CCN(c2cccc(Cl)c2)CC1	1 (yes)
Cn1c(=O)n(CCCCN2CCC3(CC2)OCc2ccccc23)c2ccccc21 [CM699, reference compound]	1 (yes)
O=C1COCc2ccccc2N1CCCCN1CCN(c2ccc(Cl)cc2)CC1	0 (no)
O=C1CSCc2ccccc2N1CCCCN1CCC2(CC1)OCc1ccccc12	0 (no)
O=C1CSCc2ccccc2N1CCCCN1CCN(c2cccc(Cl)c2)CC1	1 (yes)

Given the entry `O=C1COCc2ccccc2N1CCCCN1CCC2(CC1)OCc1ccccc12` , answer whether its inhibition at 1 µM meets or surpasses 20%.
0 (no)

Would you say `O=C1COCc2ccccc2N1CCCCN1CCN(c2cccc(Cl)c2)CC1` shows inhibition at 1 µM at minimum 20%?
1 (yes)

Item `O=C1CCCc2ccccc2N1CCCCN1CCN(c2ccccc2Cl)CC1` with inhibition at 1 µM of 20% or above?
0 (no)

Quick check, inhibition at 1 µM >= 20%? `O=C1CCCc2ccccc2N1CCCCN1CCC2(CC1)OCc1ccccc12`
0 (no)

----------
# measuredTarget: sigma 1 (h) (Homo sapiens)
# Construct: endogenous; endogenous in cells; host or cells: Jurkat cells
# protocolText: sigma 1 (h) agonist radioligand binding assay ([3H](+)pentazocine)
# cond: Sigma 1 Receptor; 1.00E−06 M; read-out: % Inhibition of Control Specific Binding, 3rd
measure: inhibition at 1 µM
Note to self: number, then unit, no commentary.

O=C1COCc2ccccc2N1CCCCN1CCC2(CC1)OCc1ccccc12 96.2%
O=C1CSCc2ccccc2N1CCCCN1CCN(c2ccccc2Cl)CC1 53.3%
O=C1CCCc2ccccc2N1CCCCN1CCN(c2ccc(Cl)cc2)CC1 99%
O=C1CSCc2ccccc2N1CCCCN1CCN(c2cccc(Cl)c2)CC1 98.6%

# evaluate next
Dear colleague, please send me the reported inhibition at 1 µM for `O=C1CSCc2ccccc2N1CCCCN1CCN(c2ccc(Cl)cc2)CC1` when you can.
101%

----------
# measuredTarget: dopamine transporter (h) (Homo sapiens)
# Construct: expressed in transfected cells; host or cells: CHO cells
# protocolText: dopamine transporter (h) antagonist radioligand binding assay ([3H]BTCP)
# cond: 1.00E−06 M, 2nd, read-out: % Inhibition of Control Specific Binding, 2nd
Could you please report measured inhibition at 1 µM for the items listed next?
One number for each entry, in %.

Consider the worked cases shown below.
molecule	number
O=C1CCCc2ccccc2N1CCCCN1CCN(c2ccccc2Cl)CC1 [STG158]	-2.8
O=C1CSCc2ccccc2N1CCCCN1CCN(c2ccc(Cl)cc2)CC1 [STG190]	14.8
O=C1CCCc2ccccc2N1CCCCN1CCN(c2cccc(Cl)c2)CC1 [SMB107]	24.4
O=C1CSCc2ccccc2N1CCCCN1CCC2(CC1)OCc1ccccc12 [STG187]	13.1
O=C1COCc2ccccc2N1CCCCN1CCC2(CC1)OCc1ccccc12 [STG135]	3.5

Lab note: each molecule below needs its inhibition at 1 µM filled in.
1. Cn1c(=O)n(CCCCN2CCC3(CC2)OCc2ccccc23)c2ccccc21 [CM699, reference compound]
2. O=C1COCc2ccccc2N1CCCCN1CCN(c2ccc(Cl)cc2)CC1 [STG189]
3. O=C1COCc2ccccc2N1CCCCN1CCN(c2cccc(Cl)c2)CC1 [SMB108]
4. O=C1CCCc2ccccc2N1CCCCN1CCC2(CC1)OCc1ccccc12 [STG136]

1: 23.2; 2: 5.1; 3: 25.9; 4: 11.4

----------
# measuredTarget: dopamine transporter (h) (Homo sapiens, UniProt Q01959)
# Construct: expressed in transfected cells; host or cells: CHO cells
# protocolText: dopamine transporter (h) antagonist radioligand binding assay ([3H]BTCP)
# cond: 1.00E−06 M, read-out: % Inhibition of Control Specific Binding, 3rd
# Description: [The source words this procedure for another target and reports this target under the same test.] 12 compounds in binding assays (either sigma 1 or sigma 2 receptors) at 1.0×10^−6 M. Compound binding was calculated as a % inhibition of the binding of a ligand specific for each target. The results are expressed as a percent of control specific binding: [(measured specific binding)/(control specific binding)]*100 and as a percent inhibition of control specific binding: 100−{[(measured specific binding)/(control specific binding)]*100}, obtained in the presence of the test compounds. […]
measure: inhibition at 1 µM (%)
One number for each entry, in %.

Observe how each entry below is paired with its result.
O=C1CSCc2ccccc2N1CCCCN1CCN(c2ccc(Cl)cc2)CC1 12
O=C1CSCc2ccccc2N1CCCCN1CCN(c2ccccc2Cl)CC1 8.5

Given `O=C1CCCc2ccccc2N1CCCCN1CCN(c2ccc(Cl)cc2)CC1` , respond with its inhibition at 1 µM.
24.8

----------
# measuredTarget: sigma 1 (h) (Homo sapiens, UniProt Q99720)
# Construct: endogenous; endogenous in cells; host or cells: Jurkat cells
# protocolText: sigma 1 (h) agonist radioligand binding assay ([3H](+)pentazocine)
# cond: Sigma 1 Receptor; 1.00E−06 M; 1st; read-out: % Inhibition of Control Specific Binding, 1st
measure: inhibition at 1 µM (%)
One number for each entry, in %.

compound	measure	number
O=C1CSCc2ccccc2N1CCCCN1CCN(c2ccccc2Cl)CC1 [STG192]	inhibition at 1 µM	53.5
O=C1CCCc2ccccc2N1CCCCN1CCN(c2cccc(Cl)c2)CC1 [SMB107]	inhibition at 1 µM	96.7
O=C1COCc2ccccc2N1CCCCN1CCN(c2ccc(Cl)cc2)CC1 [STG189]	inhibition at 1 µM	92.8
O=C1CCCc2ccccc2N1CCCCN1CCN(c2ccccc2Cl)CC1 [STG158]	inhibition at 1 µM	95.7

For every record below, what is its inhibition at 1 µM?
1. O=C1CCCc2ccccc2N1CCCCN1CCC2(CC1)OCc1ccccc12 [STG136]
2. Cn1c(=O)n(CCCCN2CCC3(CC2)OCc2ccccc23)c2ccccc21 [CM699, reference compound]
3. O=C1CSCc2ccccc2N1CCCCN1CCN(c2ccc(Cl)cc2)CC1 [STG190]

98.8
95.6
101

Give inhibition at 1 µM for each listed item.
1. O=C1CCCc2ccccc2N1CCCCN1CCN(c2ccc(Cl)cc2)CC1 [STG188]
2. O=C1CSCc2ccccc2N1CCCCN1CCN(c2cccc(Cl)c2)CC1 [STG191]

1. 98.8
2. 98.6

----------
# measuredTarget: sigma 1 (h) (Homo sapiens)
# Construct: endogenous; endogenous in cells; host or cells: Jurkat cells
# protocolText: sigma 1 (h) agonist radioligand binding assay ([3H](+)pentazocine)
# cond: Sigma 1 Receptor; 1.00E−06 M; 2nd; read-out: % Inhibition of Control Specific Binding, 2nd
measure: inhibition at 1 µM (%)
Numbers only, in %.

Provide inhibition at 1 µM values for the following items, in order.
1. Cn1c(=O)n(CCCCN2CCC3(CC2)OCc2ccccc23)c2ccccc21 [CM699, reference compound]
2. O=C1CSCc2ccccc2N1CCCCN1CCC2(CC1)OCc1ccccc12 [STG187]
3. O=C1COCc2ccccc2N1CCCCN1CCN(c2cccc(Cl)c2)CC1 [SMB108]

94
98.9
95.4

----------
# measuredTarget: sigma 2 (h) (Homo sapiens)
# Construct: endogenous; endogenous in cells; host or cells: Jurkat cells
# Sequence (Q5BJF2 whole entry): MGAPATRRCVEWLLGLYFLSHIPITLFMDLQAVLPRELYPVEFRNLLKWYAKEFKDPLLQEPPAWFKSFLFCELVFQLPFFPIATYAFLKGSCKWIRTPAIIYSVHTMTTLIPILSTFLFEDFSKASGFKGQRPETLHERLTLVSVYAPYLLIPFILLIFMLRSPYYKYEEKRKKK
# protocolText: sigma 2 (h) agonist radioligand binding assay ([3H]DTG)
# cond: Sigma 2 Receptor; 1.00E−06 M; read-out: % Inhibition of Control Specific Binding, 3rd
measure: inhibition at 1 µM (%)
Answers are plain numbers, in %.

Would you please look over these solved cases?
compound	quantityUnit	inhibition at 1 µM
O=C1CSCc2ccccc2N1CCCCN1CCN(c2ccccc2Cl)CC1 [STG192]	%	50
O=C1CCCc2ccccc2N1CCCCN1CCN(c2cccc(Cl)c2)CC1 [SMB107]	%	101
O=C1CSCc2ccccc2N1CCCCN1CCN(c2ccc(Cl)cc2)CC1 [STG190]	%	95.9
O=C1CCCc2ccccc2N1CCCCN1CCN(c2ccccc2Cl)CC1 [STG158]	%	96.7

# input for lookup
Query inhibition at 1 µM for O=C1COCc2ccccc2N1CCCCN1CCC2(CC1)OCc1ccccc12 [STG135]
95.2
